Tgt: HLA-A*26:01
Assay Details: IEDB peptide-MHC binding, purified MHC/direct/fluorescence; filed as Kd, often an IC50 or EC50 that approximates it; bounds were set here for any values at or beyond the usual limits of such assays
Test Parameters: source organism: Crocodilepox virus
pKd: −log10 of the molar value.
Endpoint Label: pKd

> print(dat)
   chain.sequence  endpoint.label  assay.value
1       VVARLGVPY             pKd       ≤ 4.70

====

Tgt: HLA-B*83:01
Assay Details: IEDB peptide-MHC binding, purified MHC/competitive/fluorescence; filed as Kd, often an IC50 or EC50 that approximates it; bounds were set here for any values at or beyond the usual limits of such assays
Test Parameters: source organism: Salmonella enterica subsp. arizonae serovar 62:z4,z23:-
Endpoint Label: Kd

> print(dat)
   chain.sequence  assay.value
1       YTIYGAWMF       ≥ 5 µM

====

Tgt: HLA-A*02:02
Assay Details: IEDB peptide-MHC binding, purified MHC/competitive/radioactivity; filed as Kd, often an IC50 or EC50 that approximates it; bounds were set here for any values at or beyond the usual limits of such assays
Test Parameters: source organism: Vaccinia virus WR
pKd: −log10 of the molar value.
Classes are defined on pKd with ranges lo = under 5, med = from 5 up to 7, hi = 7 and over

> print(dat)
   chain.sequence  label.value
1      NASKFVYVSV          med
2      ILGIIITVGM          med
3       DTCLLAISA          med
4      ILSNKLLYAA           hi
5      SQFSYKELYV           hi
6       EALYYVHSL           lo
7       LLVQYGAKI          med
8       DVGCLLTDT           lo

====

Tgt: HLA-A*02:11
Assay Details: IEDB peptide-MHC binding, purified MHC/direct/fluorescence; filed as Kd, often an IC50 or EC50 that approximates it; bounds were set here for any values at or beyond the usual limits of such assays
Test Parameters: source organism: dengue virus type 3
Endpoint Label: Kd

> print(dat)
   chain.sequence  assay.value
1       TLYAVATTV       ≤ 1 nM

====

Tgt: HLA-A*30:02
Assay Details: IEDB peptide-MHC binding, purified MHC/competitive/radioactivity; filed as Kd, often an IC50 or EC50 that approximates it; bounds were set here for any values at or beyond the usual limits of such assays
Test Parameters: source organism: Dengue virus 1 Brazil/97-11/1997
pKd: −log10 of the molar value.
Endpoint Label: pKd

> print(dat)
   chain.sequence  endpoint.label  assay.value
1       TMAHRKPTY             pKd         5.69

====

Tgt: HLA-B*15:42
Assay Details: IEDB peptide-MHC binding, purified MHC/competitive/fluorescence; filed as Kd, often an IC50 or EC50 that approximates it; bounds were set here for any values at or beyond the usual limits of such assays
Test Parameters: source organism: Cryptosporidium parvum Iowa II
Endpoint Label: Kd

> print(dat)
   chain.sequence  endpoint.label  assay.value
1       MQFPGSVGF              Kd       ≥ 5 µM

====

Tgt: HLA-B*35:01
Assay Details: IEDB peptide-MHC binding, purified MHC/direct/fluorescence; filed as Kd, often an IC50 or EC50 that approximates it; bounds were set here for any values at or beyond the usual limits of such assays
Test Parameters: source organism: Inovirus M13
Endpoint Label: Kd (nM)

> print(dat)
   chain.sequence  assay.value
1       TFMYVFSTF         80.6

====

Tgt: HLA-B*44:02
Assay Details: IEDB peptide-MHC binding, purified MHC/competitive/radioactivity; filed as Kd, often an IC50 or EC50 that approximates it; bounds were set here for any values at or beyond the usual limits of such assays
Test Parameters: source organism: Mammarenavirus brazilense
pKd: −log10 of the molar value.
Endpoint Label: pKd

> print(dat)
   chain.sequence  assay.value
1      KEPGVSRELL       ≤ 4.15
2       YEQQTVNST       ≤ 4.47

====

Tgt: HLA-B*07:02
Assay Details: IEDB peptide-MHC binding, purified MHC/competitive/fluorescence; filed as Kd, often an IC50 or EC50 that approximates it; bounds were set here for any values at or beyond the usual limits of such assays
Test Parameters: source organism: Vaccinia virus WR
Endpoint Label: Kd

> print(dat)
   chain.sequence  endpoint.label  assay.value
1       LSDLKKTIY              Kd      ≥ 20 µM

====

Tgt: HLA-B*15:42
Assay Details: IEDB peptide-MHC binding, purified MHC/competitive/fluorescence; filed as Kd, often an IC50 or EC50 that approximates it; bounds were set here for any values at or beyond the usual limits of such assays
Test Parameters: source organism: Salmonella enterica subsp. arizonae serovar 62:z4,z23:-
Endpoint Label: Kd

> print(dat)
   chain.sequence  endpoint.label  assay.value
1       YTIYGAWMF              Kd       ≥ 5 µM

====

Kd listing for selected sequences.
Tgt: HLA-A*02:03
Assay Details: IEDB peptide-MHC binding, purified MHC/competitive/radioactivity; filed as Kd, often an IC50 or EC50 that approximates it; bounds were set here for any values at or beyond the usual limits of such assays
Test Parameters: source organism: Trypanosoma cruzi
Endpoint Label: Kd

> print(dat)
   chain.sequence  assay.value
1       ELLRPTTLV      1390 nM
2       FANYGFTLA      46.2 nM

====

Tgt: HLA-B*18:01
Assay Details: IEDB peptide-MHC binding, purified MHC/direct/fluorescence; filed as Kd, often an IC50 or EC50 that approximates it; bounds were set here for any values at or beyond the usual limits of such assays
Test Parameters: source organism: Yellow fever virus 1899/81
Endpoint Label: Kd (nM)

> print(dat)
   chain.sequence  endpoint.label  value.units  assay.value
1       HEVNGTWMI              Kd           nM            9

====

Tgt: HLA-A*69:01
Assay Details: IEDB peptide-MHC binding, purified MHC/direct/fluorescence; filed as Kd, often an IC50 or EC50 that approximates it; bounds were set here for any values at or beyond the usual limits of such assays
Test Parameters: source organism: Yersinia pestis Antiqua
Endpoint Label: Kd

> print(dat)
   chain.sequence  assay.value
1       SQGRGWFLL      ≥ 20 µM

====

Tgt: HLA-B*58:01
Assay Details: IEDB peptide-MHC binding, purified MHC/direct/fluorescence; filed as Kd, often an IC50 or EC50 that approximates it; bounds were set here for any values at or beyond the usual limits of such assays
Test Parameters: source organism: Burkholderia mallei
pKd: −log10 of the molar value.
Endpoint Label: pKd

> print(dat)
   chain.sequence  endpoint.label  assay.value
1       STYQPLPLY             pKd         6.71

====

Tgt: HLA-B*27:05
Assay Details: IEDB peptide-MHC binding, purified MHC/direct/fluorescence; filed as Kd, often an IC50 or EC50 that approximates it; bounds were set here for any values at or beyond the usual limits of such assays
Test Parameters: source organism: Escherichia coli
Endpoint Label: Kd

> print(dat)
   chain.sequence  endpoint.label  assay.value
1       RRRIGEIFK              Kd      64.2 nM

====

Tgt: HLA-A*24:02
Assay Details: IEDB peptide-MHC binding, purified MHC/competitive/radioactivity; filed as Kd, often an IC50 or EC50 that approximates it; bounds were set here for any values at or beyond the usual limits of such assays
Test Parameters: source organism: Dengue virus 3 Martinique/1243/1999
Endpoint Label: Kd (nM)

> print(dat)
   chain.sequence  endpoint.label  value.units  assay.value
1      PWLKNNQFCI              Kd           nM          224
2      QWMTTEDMLT              Kd           nM         6100
3       NYILWENNI              Kd           nM         2.85
4      WYMWLGARYL              Kd           nM         17.8

====

Tgt: HLA-A*03:01
Assay Details: IEDB peptide-MHC binding, purified MHC/competitive/fluorescence; bounds were set here for any values at or beyond the usual limits of such assays
Test Parameters: source organism: Vaccinia virus Copenhagen
pIC50: −log10 of the molar value.
Endpoint Label: pIC50

> print(dat)
   chain.sequence  assay.value
1       VTAASPMLY         4.98

====

Tgt: HLA-B*58:01
Assay Details: IEDB peptide-MHC binding, purified MHC/direct/fluorescence; filed as Kd, often an IC50 or EC50 that approximates it; bounds were set here for any values at or beyond the usual limits of such assays
Test Parameters: source organism: Vibrio parahaemolyticus
Endpoint Label: Kd

> print(dat)
   chain.sequence  endpoint.label  assay.value
1       DTWHGFKNM              Kd      ≥ 20 µM
